Recorded TGI values for a group of compounds are listed next.
# System: RXF 393 renal
# assayNotes: NCI tumour cell line growth inhibition, 48 h
experimentalEndpoint: TGI

compound=COc1ccc(C[C@H]2NC(=O)/C=C/C[C@@H]([C@H](C)[C@H]3O[C@@H]3c3ccccc3)OC(=O)[C@H](CC(C)C)OC(=O)[C@H](C)CNC2=O)cc1 systemname="RXF 393 renal" experimentalendpoint=TGI reportedresult="> 3.12e-05 µM"
compound=CN1c2ccccc2C(=O)NC12CCN(Cc1ccccc1)CC2 systemname="RXF 393 renal" experimentalendpoint=TGI reportedresult="> 100 µM"
compound=[N-]=[N+]=C(C(=O)OCC#CCOC(=O)C(=[N+]=[N-])S(=O)(=O)c1ccccc1)S(=O)(=O)c1ccccc1 systemname="RXF 393 renal" experimentalendpoint=TGI reportedresult="> 10 µM"
compound=O=C1CCCCCCCCCCC(=O)C2CCOCCOCCOCCC1Cc1cccc(n1)C2 systemname="RXF 393 renal" experimentalendpoint=TGI reportedresult="> 100 µM"
compound=CCSCC(=O)N1CCc2c([nH]c3ccccc23)C1=O systemname="RXF 393 renal" experimentalendpoint=TGI reportedresult="> 100 µM"
compound=CC(=O)[CH-]C(=O)c1ccccc1.CC(=O)[CH-]C(=O)c1ccccc1.CC(=O)[CH-]C(=O)c1ccccc1.[Tl+3] systemname="RXF 393 renal" experimentalendpoint=TGI reportedresult="> 100 µM"
compound=Cc1c(C)c2c(c(N)c1C#N)C(=O)N(OS(=O)(=O)c1ccccc1)C2=O systemname="RXF 393 renal" experimentalendpoint=TGI reportedresult="30.7 µM"
compound=NC(Cc1ccccc1)=NCC(=O)O systemname="RXF 393 renal" experimentalendpoint=TGI reportedresult="> 100 µM"
compound=Nc1ccc(C(=O)c2ccc(N)c(Br)c2)cc1Br systemname="RXF 393 renal" experimentalendpoint=TGI reportedresult="0.882 µM"
compound=O=C1C(Cl)=C(Oc2ccc([N+](=O)[O-])cc2)C(=O)c2c(O)ccc(O)c21 systemname="RXF 393 renal" experimentalendpoint=TGI reportedresult="52.5 µM"
compound="CN1[C@@H]2CCCC[C@H]2N(C)P1(=O)C(O)/C=C/c1ccccc1 (stereo partly specified)" systemname="RXF 393 renal" experimentalendpoint=TGI reportedresult="> 100 µM"
compound="O=C(c1cc(F)c(Cl)cc1Cl)N1N=C(c2ccccc2)CC1(O)c1ccccc1 (stereo unspecified)" systemname="RXF 393 renal" experimentalendpoint=TGI reportedresult="48.1 µM"
compound=c1nc2cscc2c2cscc12 systemname="RXF 393 renal" experimentalendpoint=TGI reportedresult="> 100 µM"
compound=Cc1ccc2ccc(=O)oc2c1 systemname="RXF 393 renal" experimentalendpoint=TGI reportedresult="> 100 µM"
compound="O=C(O)CS(=O)c1ccc2c3c(cccc13)C(=O)c1ccccc1-2 (stereo unspecified)" systemname="RXF 393 renal" experimentalendpoint=TGI reportedresult="> 100 µM"
compound="C=C1C(=O)O[C@@H]2C1C[C@@H](O)/C(C)=C/C/C=C(\\C)CCC[C@H](C)[C@H]2OC(C)=O (stereo partly specified)" systemname="RXF 393 renal" experimentalendpoint=TGI reportedresult="50.2 µM"
compound=NNC(=Nc1ccccc1)SCc1ccccc1 systemname="RXF 393 renal" experimentalendpoint=TGI reportedresult="> 100 µM"
compound=Nc1ccccc1/C=C\c1ccccc1 systemname="RXF 393 renal" experimentalendpoint=TGI reportedresult="> 100 µM"
compound="COC1/C(=C\\C(=O)OC(C)(C)C)c2ccccc2N1C(C)=O (stereo unspecified)" systemname="RXF 393 renal" experimentalendpoint=TGI reportedresult="> 100 µM"
compound=COc1ccc(/C=C2\Sc3nnc(C)n3N=C2c2cc(F)c(Cl)cc2Cl)cc1OC systemname="RXF 393 renal" experimentalendpoint=TGI reportedresult="32.7 µM"
compound=N#Cc1ccc(/C=N/NC(=O)CSCC(=O)N/N=C/c2ccc(C#N)cc2)cc1 systemname="RXF 393 renal" experimentalendpoint=TGI reportedresult="> 100 µM"
